System: H3K18Ac in HB-CLS-2 cells
ASSAY INFO: H3K18AC in-cell western (ICW) assay
Assay type: cell-based
MEASUREMENT SETUP: H3K18Ac in-cell western; read-out: CREBBP ICW IC50
pIC50: −log10 of the molar value.
OBSERVABLE: pIC50

Examples with their reported pIC50 follow.
                              record_smiles  observable  measured
0  CCn1ncc(CN(C)C(=O)c2nc(-c3ccc(OCCN(C)C(=O)OC(C)(C)C)c(OC)c3)nc3ccc(Cl)cc23)c1C       pIC50      5.14
1  CCn1ncc(CN(C)C(=O)c2nc(-c3ccc(C(=O)NC)c(C)c3)nc3ccc(Cl)cc23)c1C       pIC50      4.89

P. CCn1ncc(CN(C)C(=O)c2nc(-c3ccc(-c4ccn[nH]4)cc3)nc3ccc(Cl)cc23)c1C
Q. CCn1ncc(CN(C)C(=O)c2nc(-c3cc(C)c4c(N)n[nH]c4c3)nc3ccc(COC)cc23)c1C
Among P and Q , whose measured pIC50 is the smaller figure? Give the label of your selection.
P
(P: 4.85, Q: 7.09)
